# TARGET SYSTEM: MERTK (UniProt Q12866)
# Sequence (Q12866 whole entry, looked up): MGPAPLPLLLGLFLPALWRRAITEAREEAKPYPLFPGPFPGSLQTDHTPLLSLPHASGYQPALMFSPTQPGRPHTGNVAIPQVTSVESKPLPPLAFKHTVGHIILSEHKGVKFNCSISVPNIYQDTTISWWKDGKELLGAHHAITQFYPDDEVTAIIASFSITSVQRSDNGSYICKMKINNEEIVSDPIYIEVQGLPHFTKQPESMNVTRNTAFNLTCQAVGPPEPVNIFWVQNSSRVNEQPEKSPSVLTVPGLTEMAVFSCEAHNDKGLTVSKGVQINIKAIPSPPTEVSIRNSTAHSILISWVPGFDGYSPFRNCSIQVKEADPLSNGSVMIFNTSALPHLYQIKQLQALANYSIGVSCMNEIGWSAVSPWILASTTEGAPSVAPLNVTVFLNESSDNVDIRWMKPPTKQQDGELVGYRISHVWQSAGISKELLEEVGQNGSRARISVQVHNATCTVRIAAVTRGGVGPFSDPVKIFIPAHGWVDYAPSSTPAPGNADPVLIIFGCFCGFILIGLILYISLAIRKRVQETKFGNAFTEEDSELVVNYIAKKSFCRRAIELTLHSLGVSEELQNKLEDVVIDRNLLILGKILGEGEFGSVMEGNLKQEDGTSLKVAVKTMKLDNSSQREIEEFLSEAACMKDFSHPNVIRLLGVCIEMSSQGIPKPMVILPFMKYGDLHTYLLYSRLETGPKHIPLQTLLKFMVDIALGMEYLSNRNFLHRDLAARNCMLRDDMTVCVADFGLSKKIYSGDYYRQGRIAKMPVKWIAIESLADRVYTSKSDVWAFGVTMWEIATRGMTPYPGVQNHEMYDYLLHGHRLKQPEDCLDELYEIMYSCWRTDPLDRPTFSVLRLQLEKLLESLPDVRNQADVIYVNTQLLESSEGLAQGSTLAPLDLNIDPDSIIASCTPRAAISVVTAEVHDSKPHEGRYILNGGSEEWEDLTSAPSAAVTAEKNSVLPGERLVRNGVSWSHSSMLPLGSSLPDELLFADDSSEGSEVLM
# ASSAY OVERVIEW: phosphorylation enrichment, bacterial display (enrichment ratio); higher = better substrate or ligand; peptides without Tyr show the background
Property: phosphorylation enrichment; scope: individual sequences
ENDPOINT: phosphorylation enrichment

INSERT INTO results (residue_sequence, measurement) VALUES
  ('KILGRYFETGS [PAX2_Y72_YF]', 0.375),
  ('AGKEEYSAMRD [HRAS_Y64_Q61K]', 0.44),
  ('RLGNQYVNVMN [SLC3A1_Y461]', 0.352),
  ('WCKPPYFSCAV [MMS22L_Y28]', 0.418),
  ('LYSNAYLSDLA [ALDH1A1_Y119_N121S]', 8.43),
  ('AIMSFYATLID [RYR1_Y2426_A2428T]', 0.59),
  ('QFPDVYAREEV [CRX_Y67_YF]', 0.603),
  ('SSYDIYHLSRE [KIR3DL2_Y253]', 6.05),
  ('MENFIYESMRF [CYP19A1_Y361_YF]', 3.74),
  ('IVAREYYSKAD [CAMK2B_Y107_E110K]', 0.425),
  ('AKKVFYVNETR [SHH_Y253_I255N]', 0.363),
  ('AFSTVYKGLWI [EGFR_Y727_G724S]', 0.395),
  ('RRAVKYLQMVG [AVPR2_Y117_C112R]', 0.727),
  ('IKKFKYRIEEH [GJA1_Y137_G138R]', 0.345),
  ('INMKEYCKKDY [NTN1_Y490_K489E]', 0.364),
  ('GPRSLYNGLVA [UCP2_Y79]', 0.381),
  ('FRTGHYLCNAC [GATA1_Y223_D218Y_YF]', 0.399),
  ('PLQSEYSSIST [ITGB4_Y1760_T1764S]', 0.582),
  ('FSLIHYAGIVV [MYH7_Y582_D587V]', 0.45),
  ('IGGHAYGDQFR [IDH1_Y135_R132G_YF]', 0.306),
  ('NLNGKYNKPRA [ANGPTL3_Y417]', 0.471),
  ('KPEKTYGLRNE [CEP43_Y267_K271N]', 0.397),
  ('NFAKMYCNPDA [KNL1_Y489_YF]', 0.536),
  ('LVKDPYVMFPQ [PLEKHG2_Y489_P484L]', 0.997),
  ('VKANTYEKYWP [GATM_Y100]', 0.976),
  ('VDTFWYKFLKR [EPM2A_Y86]', 0.432),
  ('MTFVFYRENLR [NLRP14_Y443_YF]', 0.369),
  ('SNSAAYSGSVA [PDLIM5_Y382_T381A]', 0.381),
  ('LNNIIYRVERA [CUX2_Y1470]', 0.43);

====

# TARGET SYSTEM: EPHB1 (UniProt P54762)
# Sequence (P54762 whole entry, looked up): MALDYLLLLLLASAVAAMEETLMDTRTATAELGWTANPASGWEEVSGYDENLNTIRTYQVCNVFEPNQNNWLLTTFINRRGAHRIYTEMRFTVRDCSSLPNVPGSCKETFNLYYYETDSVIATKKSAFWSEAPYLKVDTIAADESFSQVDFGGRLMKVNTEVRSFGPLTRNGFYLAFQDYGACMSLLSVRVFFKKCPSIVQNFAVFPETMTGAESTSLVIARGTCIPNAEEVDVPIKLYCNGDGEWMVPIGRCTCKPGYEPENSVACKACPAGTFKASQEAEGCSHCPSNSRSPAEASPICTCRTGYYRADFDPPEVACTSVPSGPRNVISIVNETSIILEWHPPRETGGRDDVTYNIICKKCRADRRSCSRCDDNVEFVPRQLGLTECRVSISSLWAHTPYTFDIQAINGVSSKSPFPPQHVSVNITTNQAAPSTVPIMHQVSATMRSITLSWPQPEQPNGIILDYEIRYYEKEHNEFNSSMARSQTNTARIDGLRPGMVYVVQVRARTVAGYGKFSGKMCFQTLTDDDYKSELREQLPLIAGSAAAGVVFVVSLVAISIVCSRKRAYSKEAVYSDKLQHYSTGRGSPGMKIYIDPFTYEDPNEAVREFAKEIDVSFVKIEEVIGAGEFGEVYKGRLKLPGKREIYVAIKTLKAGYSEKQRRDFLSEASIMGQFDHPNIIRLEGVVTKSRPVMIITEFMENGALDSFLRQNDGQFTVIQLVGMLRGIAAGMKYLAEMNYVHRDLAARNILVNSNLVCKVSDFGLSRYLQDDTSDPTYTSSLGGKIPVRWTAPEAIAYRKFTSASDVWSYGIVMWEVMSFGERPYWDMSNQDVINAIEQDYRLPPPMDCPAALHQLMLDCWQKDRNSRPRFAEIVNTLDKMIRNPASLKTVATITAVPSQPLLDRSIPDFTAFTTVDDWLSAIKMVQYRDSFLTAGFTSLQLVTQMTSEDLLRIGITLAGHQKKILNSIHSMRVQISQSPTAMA
# ASSAY OVERVIEW: phosphorylation enrichment, bacterial display (enrichment ratio); higher = better substrate or ligand; peptides without Tyr show the background
ENDPOINT: phosphorylation enrichment

INSERT INTO results (residue_sequence, measurement) VALUES
  ('IVWDSYTTNKV [GNB3_Y85]', 0.675),
  ('QSVEPYTKQQL [STAT3_Y640]', 0.614),
  ('RNDRVYQPLRD [CD3D_Y149_Q147R]', 0.629),
  ('MALDRYVAICK [OR2B11_Y127]', 0.581),
  ('GDYYCYLAEVA [YWHAG_Y133_R132C]', 13),
  ('IIGNGYYFHVF [MYBPC3_Y1135_R1138H]', 0.518),
  ('FGVTLYPNSRE [MEP1A_Y472]', 0.675),
  ('FPLELYERVRI [PRKCG_Y312_M317I_YF]', 1.66),
  ('RSFLSYFTSHV [NEFL_Y442_P440L_YF]', 0.759),
  ('IGEGTYGQVYK [CDK13_Y716]', 0.889),
  ('LPHVIYCRLWC [SMAD2_Y128_R133C]', 7.33),
  ('KLFIEYPTGSG [IRF2BPL_Y423]', 0.478),
  ('QEIATYRPLLE [KRT14_Y415_R417P]', 0.791),
  ('ISMAGYSIPEL [EDAR_Y406_T403M]', 0.395),
  ('RLSVDCGKKSK [TUBA4A_Y161_Y161C]', 1.03),
  ('PSGPMYRGAVP [ASAH1_Y43_T42M]', 0.34),
  ('SRDTCYLVLAV [AMH_Y195_R194C]', 0.719),
  ('TLDTDYQMTKR [ADA_Y308]', 0.45),
  ('HNLYSYPTKHE [MYO3A_Y1396]', 11.6),
  ('EEQKKYFNAVK [SCN5A_Y1494_M1498V_YF]', 0.482),
  ('PEVRRCVLPLN [RPE65_Y368_Y368C]', 0.673),
  ('AHLTEYLSTHF [UQCRC1_Y219_D215H_YF]', 0.471),
  ('HFGNNYTDVLQ [MACC1_Y803_R804T_YF]', 1.61),
  ('WRVISYHVVVW [ATP13A2_Y50_G49S]', 0.582),
  ('FSALDYKIFYY [WDPCP_Y210_L205F]', 0.928),
  ('ETAENYLGFTA [HSPA9_Y181_H184Y_YF]', 0.743),
  ('GVIRHSVVCST [BTK_Y334_Y334S]', 0.508),
  ('LYEDRYLLGPS [ASS1_Y87_T91P]', 3.52);

====

# TARGET SYSTEM: Hck (UniProt P08631)
# Sequence (P08631 whole entry, looked up): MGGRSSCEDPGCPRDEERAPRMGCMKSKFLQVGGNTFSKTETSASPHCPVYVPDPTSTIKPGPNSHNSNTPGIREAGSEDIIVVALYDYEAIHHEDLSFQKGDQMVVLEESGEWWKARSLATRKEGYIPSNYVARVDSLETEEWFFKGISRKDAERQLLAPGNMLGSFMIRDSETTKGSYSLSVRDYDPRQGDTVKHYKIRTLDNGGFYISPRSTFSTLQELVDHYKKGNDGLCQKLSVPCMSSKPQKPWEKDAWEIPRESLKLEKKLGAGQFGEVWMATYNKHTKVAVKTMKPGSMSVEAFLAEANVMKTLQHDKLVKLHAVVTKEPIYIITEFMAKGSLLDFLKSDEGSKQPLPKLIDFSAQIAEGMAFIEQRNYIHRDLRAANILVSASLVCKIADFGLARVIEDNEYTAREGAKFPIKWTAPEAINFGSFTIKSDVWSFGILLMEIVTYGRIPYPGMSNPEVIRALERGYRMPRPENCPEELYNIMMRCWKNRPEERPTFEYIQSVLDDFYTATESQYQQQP
# ASSAY OVERVIEW: phosphorylation enrichment, bacterial display (enrichment ratio); higher = better substrate or ligand; peptides without Tyr show the background
Property: phosphorylation enrichment; scope: individual sequences
ENDPOINT: phosphorylation enrichment

INSERT INTO assay_data (residue_sequence, measurement) VALUES
  ('SVVVPYERPEV [TP53_Y220_P222R]', 0.502),
  ('YIRRDYEACKA [BBS4_Y48_K46R]', 0.509),
  ('WRPFGYPCRRR [BCS1L_Y181_R183C]', 0.457),
  ('QQLQGYVPSNY [FRK_Y99_I100V]', 0.537),
  ('EVKRLYGSVCD [TC2N_Y154]', 0.61),
  ('VVLEDYLDIKN [CLCNKB_Y138]', 0.434),
  ('FQRLQYIKQLG [SAMHD1_Y146_R145Q]', 0.418),
  ('RVSSVYTRSTG [CCR5_Y339_A335V]', 1.13),
  ('KKRRSYGNSSD [SELENOK_Y52]', 0.511),
  ('QAPPVYLDVLG [NTRK1_Y791]', 1.02),
  ('DYSLKYATDIP [APC_Y1183]', 0.6),
  ('IKKFKYRIEEH [GJA1_Y137_G138R]', 0.336),
  ('KVKPIYFHTRG [AR_Y916_Q920R]', 0.527),
  ('LPPREYVVVPS [CAPN1_Y494_G492R]', 1.73);

====

# TARGET SYSTEM: SHP2-C SH2;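 further: peptide library displayed on the E. coli surface as eCPX fusions, selected cells deep-sequenced, score is each peptide's frequency after selection divided by its frequency in the input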
# ASSAY OVERVIEW: SH2 binding enrichment of the phosphorylated peptide, bacterial display (enrichment ratio); higher = better substrate or ligand; peptides without Tyr show the background
Assign Condition met to entries whose SH2 binding enrichment meets or exceeds 0.8; assign Condition not met to the rest.

INSERT INTO results (residue_sequence, label_value) VALUES
  ('IGEGTYGQVYK [CDK13_Y716]', 'Condition met'),
  ('DLSEVYKPCRK [CCDC93_Y176_R179C]', 'Condition met'),
  ('PMFTKYGNSLL [RPGRIP1L_Y196]', 'Condition not met'),
  ('AACQHYGVRTC [NR4A2_Y275]', 'Condition met'),
  ('CKPGFYNLKEK [LAMA1_Y490]', 'Condition not met'),
  ('ADLLDYIKALN [HPRT1_Y81]', 'Condition not met'),
  ('QEGPEYWDRET [HLA-A_Y83_Q86R]', 'Condition not met'),
  ('RSFLSYFTSHV [NEFL_Y442_P440L_YF]', 'Condition met'),
  ('MTKEQYIKMNQ [ARFGEF2_Y797_R802Q]', 'Condition not met'),
  ('KVKPIYFHTRG [AR_Y916_Q920R]', 'Condition met'),
  ('IGGHAYGDQFR [IDH1_Y135_R132G_YF]', 'Condition met'),
  ('LSGVIYVILWK [PMP22_Y153_R157W]', 'Condition met'),
  ('LPHVIYCRLWC [SMAD2_Y128_R133C]', 'Condition met'),
  ('DRFDNYIEKVR [DES_Y122_A120D]', 'Condition not met'),
  ('HYGNNYRDVLQ [MACC1_Y803]', 'Condition met'),
  ('FFRDGCMPRQF [GSS_Y270_Y270C_YF]', 'Condition not met'),
  ('HCHEGYVLHGA [SVEP1_Y2921_I2922V]', 'Condition met'),
  ('VVQGIYGYHHH [UFSP2_Y285_Y290H]', 'Condition met'),
  ('PRSRSYSSTSI [REPS2_Y462]', 'Condition not met'),
  ('GPSTPYTKSKC [SMARCC2_Y324_R329C]', 'Condition met'),
  ('KLQKFYRQNPD [EHHADH_Y683_YF]', 'Condition not met'),
  ('ATDLAYYLVRK [ASL_Y375]', 'Condition met'),
  ('LVPAWYIGFLC [KCNQ2_Y237_T234P]', 'Condition met'),
  ('RMGNLYDIDED [GRIN2A_Y1246]', 'Condition not met'),
  ('RLLRGYNQSAF [HLA-C_Y137_D138N_YF]', 'Condition not met'),
  ('RELSWYRGRRP [HESX1_Y106]', 'Condition not met'),
  ('CTLLPYFSAPV [DGKE_Y269_R273P_YF]', 'Condition not met'),
  ('MSLRSYGSREG [APC_Y96]', 'Condition not met'),
  ('LSSNLYYRWLT [CNGA3_Y168_P163L]', 'Condition met'),
  ('IRKKFYRAILE [CHD7_Y1218_Q1214R_YF]', 'Condition not met'),
  ('RHPLDYLRQFP [NARS2_Y138_E137D_YF]', 'Condition not met'),
  ('DTNIAYCLHPR [POMT1_Y581_W582C]', 'Condition not met'),
  ('VSKGGYFSVNL [C3orf33_Y164]', 'Condition met'),
  ('DLDTDYGSGFP [RNASEH2A_Y206_YF]', 'Condition not met'),
  ('HIKHNYECLVF [XRCC5_Y416_YF]', 'Condition not met'),
  ('GCKNHYDKDKP [THAP1_Y14_R13H]', 'Condition met'),
  ('DASAVYLHDFQ [PLCG2_Y242]', 'Condition not met'),
  ('DESEDYRDTVV [CNNM3_Y456]', 'Condition not met'),
  ('PVDVAYRHGYF [PLEC_Y2967_R2969H]', 'Condition not met'),
  ('IKIMGSSIRTI [IDS_Y490_Y490S]', 'Condition not met'),
  ('EQKKYSNAMKK [SCN5A_Y1495_Y1495S]', 'Condition not met'),
  ('QELRRYLKSSV [MICA_Y194_G198S]', 'Condition not met'),
  ('RRIHNYRGHLW [VHL_Y112_S111N]', 'Condition not met'),
  ('RLAQRYLIWEC [SCN5A_Y694]', 'Condition not met'),
  ('CTTIRYNFMCN [TP53_Y234_H233R_YF]', 'Condition met'),
  ('DGTGHYLGNAC [GATA5_Y208_C210G]', 'Condition not met'),
  ('KPEKTYGLRNE [CEP43_Y267_K271N]', 'Condition not met'),
  ('EFENSCIFDIN [GAB1_Y83_Y83C]', 'Condition not met'),
  ('GFRVFYTPDSR [PTPRF_Y451_YF]', 'Condition met'),
  ('RSRSPYSPVLR [CDK13_Y399]', 'Condition met'),
  ('PDGVEYLKNNP [GRIN3A_Y831_D835N]', 'Condition met'),
  ('NFFDTYIKTCL [IQGAP2_Y1445_YF]', 'Condition not met'),
  ('TNEYEYDELIV [TGM1_Y136_D132N]', 'Condition met'),
  ('GIATGYLVLKE [DNMT3B_Y588]', 'Condition met'),
  ('EILTQYEAMAS [GFAP_Y242_R239L]', 'Condition not met');

Provenance of the data: the supplement of paper PMC10065799
